Assay: Antibacterial activity against Enterobacter cloacae 1321E
Assay type: functional
observation_type: MIC (µg/mL)
Express it in µg/mL; write the number only.

C[C@@H](O)[C@H]1C(=O)N2C(C(=O)O)=C(S[C@@H]3CN[C@H](C(=O)NCCS(=O)(=O)N(C)C)C3)[C@H](C)[C@H]12: 0.025
C[C@@H](O)[C@H]1C(=O)N2C(C(=O)O)=C(S[C@@H]3CN[C@H](C(=O)NCCS(=O)(=O)N4CCOCC4)C3)[C@H](C)[C@H]12: 0.049
C[C@@H](O)[C@H]1C(=O)N2C(C(=O)O)=C(S[C@@H]3CN[C@H](C(=O)NCCS(N)(=O)=O)C3)[C@H](C)[C@H]12: 0.025
CNC(=O)CCNC(=O)[C@@H]1C[C@H](SC2=C(C(=O)O)N3C(=O)[C@H]([C@@H](C)O)[C@H]3[C@H]2C)CN1: 0.025
C[C@@H](O)[C@H]1C(=O)N2C(C(=O)O)=C(S[C@@H]3CN[C@H](C(=O)NCCS(=O)(=O)NCCO)C3)[C@H](C)[C@H]12: 0.025
C[C@@H](O)[C@H]1C(=O)N2C(C(=O)O)=C(S[C@@H]3CN[C@H](C(=O)NCCS(=O)(=O)N4CCCC4)C3)[C@H](C)[C@H]12: 0.013

Q: Tell me the measured MIC of C[C@@H](O)[C@H]1C(=O)N2C(C(=O)O)=C(S[C@@H]3CN[C@H](C(=O)NCCC(=O)O)C3)[C@H](C)[C@H]12 , please.
Result: 0.049

Q: Tell me the measured MIC of C[C@@H](O)[C@H]1C(=O)N2C(C(=O)O)=C(S[C@@H]3CN[C@H](C(=O)NCCC(N)=O)C3)[C@H](C)[C@H]12 , please.
Result: 0.025

Q: Tell me the measured MIC of C[C@@H](O)[C@H]1C(=O)N2C(C(=O)O)=C(S[C@@H]3CN[C@H](C(=O)NCCS(=O)(=O)N(C)CCO)C3)[C@H](C)[C@H]12 , please.
Result: 0.025

Q: Tell me the measured MIC of C[C@@H](O)[C@H]1C(=O)N2C(C(=O)O)=C(S[C@@H]3CN[C@H](C(=O)NCCC(=O)N4CCCC4)C3)[C@H](C)[C@H]12 , please.
Result: 0.025
